target: Bcl-2 protein (Recombinant Human Bcl-2 Protein) (Homo sapiens, UniProt P10415); construct: purchased Novus NBP2-34889; assay: Binding evaluation of mixture library compounds to Bcl-2 using AS-MS (affinity selection mass spectrometry); conditions: AS-MS, mixture library, Bcl-2; replicate n = 2; ASMS Ratio(%)=(A−C)/B×100
Sequence (P10415 whole entry): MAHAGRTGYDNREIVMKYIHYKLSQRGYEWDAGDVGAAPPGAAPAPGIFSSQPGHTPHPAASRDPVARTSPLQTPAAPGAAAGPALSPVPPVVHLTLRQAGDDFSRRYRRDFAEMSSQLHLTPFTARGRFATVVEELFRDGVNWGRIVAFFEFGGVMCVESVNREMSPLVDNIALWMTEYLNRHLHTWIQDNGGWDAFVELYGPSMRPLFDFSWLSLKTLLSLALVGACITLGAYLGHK
QUANTITY KIND: ASMS ratio (%) n = 2

Use the examples below as a reference point.
>>> obs_value("CCOc1cccc(-c2cc(C(=O)N3CCN(c4ccc(C(=O)NS(C)(=O)=O)cc4)CC3)cc(C(C)(C)C)c2)c1 [B2I037-01]")
3.3
>>> obs_value("CCOc1cccc(-c2ccc(C(=O)N3CCN(c4ccc(C(=O)NS(=O)(=O)CC56CC7CC(CC(C7)C5)C6)cc4)CC3)c3ccccc23)c1 [B2A035-01]")
"−9.8"
>>> obs_value("CCOc1cccc(-c2csc(CN3CCN(c4ccc(C(=O)N(CC)CC)nn4)CC3)c2)c1 [B4J093-01]")
0.6
>>> obs_value("CCOc1cccc(-c2ccc(CN3CCN(c4ccc(C(=O)N(CC)CC)cc4)CC3)c3ccccc23)c1 [B4J065-01]")
0.0
>>> obs_value("CCOc1cncc(C#Cc2ccccc2CN2CCN(c3ccc(C(=O)N(CC)CC)cc3)CC2)c1 [B4J070-01]")
0.0

P = CCOc1cccc(-c2csc(C(=O)N3CCN(c4ccc(C(=O)NS(=O)(=O)CC56CC7CC(CC(C7)C5)C6)cc4)CC3)c2)c1 [B2A023-01]
Q = CCOc1cccc(-c2ccc(C(=O)N3CCN(c4ccc(C(=O)NS(=O)(=O)CC56CC7CC(CC(C7)C5)C6)cc4)CC3)cc2C)c1 [B2A025-01]
// query Given the two records P and Q , choose the one whose ASMS ratio (%) n = 2 value is lower. Please indicate the selected item by its label.
// result Q
(Q: −2.7%, P: 0.0%)
